These data points were gathered from patent US6284774A.

target_of_assay: NRIA /2A (Rattus norvegicus, UniProt P35439+Q00959)
Sequence (Q00959 23-1464, other chains not shown): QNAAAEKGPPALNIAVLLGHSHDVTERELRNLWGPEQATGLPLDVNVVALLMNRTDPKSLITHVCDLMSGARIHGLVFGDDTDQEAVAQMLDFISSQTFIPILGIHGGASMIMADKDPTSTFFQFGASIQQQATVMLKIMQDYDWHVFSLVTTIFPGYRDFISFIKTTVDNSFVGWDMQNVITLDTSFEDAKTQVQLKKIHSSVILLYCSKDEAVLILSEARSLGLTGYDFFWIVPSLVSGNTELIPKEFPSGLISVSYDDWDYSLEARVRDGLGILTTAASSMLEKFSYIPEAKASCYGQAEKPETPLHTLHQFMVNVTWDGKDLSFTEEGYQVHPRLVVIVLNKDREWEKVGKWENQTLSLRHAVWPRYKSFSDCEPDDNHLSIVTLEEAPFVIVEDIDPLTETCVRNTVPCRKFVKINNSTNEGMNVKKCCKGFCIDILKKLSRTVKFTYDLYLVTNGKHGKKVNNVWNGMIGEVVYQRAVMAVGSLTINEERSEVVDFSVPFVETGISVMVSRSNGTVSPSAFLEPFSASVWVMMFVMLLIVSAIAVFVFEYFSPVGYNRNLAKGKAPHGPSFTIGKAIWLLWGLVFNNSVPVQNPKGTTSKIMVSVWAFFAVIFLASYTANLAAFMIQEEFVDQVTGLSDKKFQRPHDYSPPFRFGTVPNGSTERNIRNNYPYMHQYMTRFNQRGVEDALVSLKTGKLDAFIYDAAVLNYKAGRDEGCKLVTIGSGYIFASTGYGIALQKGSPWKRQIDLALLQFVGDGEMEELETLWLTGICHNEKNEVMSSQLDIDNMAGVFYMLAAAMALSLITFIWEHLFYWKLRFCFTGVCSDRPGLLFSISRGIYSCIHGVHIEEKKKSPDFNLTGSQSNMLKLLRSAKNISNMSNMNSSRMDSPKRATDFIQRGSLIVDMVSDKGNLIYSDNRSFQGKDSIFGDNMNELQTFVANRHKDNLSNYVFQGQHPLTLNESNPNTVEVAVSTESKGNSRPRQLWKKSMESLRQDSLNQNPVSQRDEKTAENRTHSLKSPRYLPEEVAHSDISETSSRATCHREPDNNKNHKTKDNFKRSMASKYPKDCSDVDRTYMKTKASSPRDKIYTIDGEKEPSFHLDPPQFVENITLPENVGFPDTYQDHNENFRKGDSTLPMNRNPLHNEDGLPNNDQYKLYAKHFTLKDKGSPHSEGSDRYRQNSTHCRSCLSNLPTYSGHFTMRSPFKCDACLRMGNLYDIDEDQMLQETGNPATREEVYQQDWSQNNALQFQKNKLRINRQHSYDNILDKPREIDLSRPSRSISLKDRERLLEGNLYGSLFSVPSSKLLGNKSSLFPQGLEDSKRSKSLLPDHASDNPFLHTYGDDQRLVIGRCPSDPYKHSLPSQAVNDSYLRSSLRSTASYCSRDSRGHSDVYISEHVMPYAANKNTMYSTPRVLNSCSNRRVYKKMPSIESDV
test_details: Electrophysiological assay at NMDA receptor subunits NR1A/2A expressed in Xenopus oocytes
setup_conditions: rat clones in Xenopus oocytes, currents activated by glutamate (100 μM) and glycine (1-100 μM)
pIC50: −log10 of the molar value.
observed_property: pIC50

Study these solved cases before continuing.
compound="O=c1[nH]c2ccc([S+]([O-])CCN3CCC(Cc4ccc(Cl)cc4)CC3)cc2o1 (stereo not drawn)" value_measured="< 3.52"
compound="O=c1[nH]c2ccc([S+]([O-])CCN3CCC(Cc4ccccc4)CC3)cc2o1 (stereo not drawn)" value_measured="< 3.52"

Response field pIC50 (NRIA /2A (Rattus norvegicus, UniProt P35439+Q00959)) for item CC(=O)Nc1ccc(CC2CCN(CC[S+]([O-])c3ccc4[nH]c(=O)oc4c3)CC2)cc1 (stereo not drawn) : < 3.52
